# credit: PubChem BioAssay AID720549

Target: RecQ-like DNA helicase BLM (Homo sapiens)
Assay: qHTS for Inhibitors of Bloom's syndrome helicase (BLM): Helicase ATPase Orthogonal Confirmatory Assay for SAR
Settings: purified BLM helicase ATPase activity assay; series mostly up to 57.1 µM
Text: Human RecQ DNA helicases participate in maintenance of genome stability and DNA repair. While other types of helicases have been explored as targets for drug development, members of the RecQ family have remained less well characterized. […] A fluorescence-based, biochemical assay in 1536 well format was developed to evaluate inhibition of BLM DNA unwinding activity. […] This luminescence assay employs a purified BLM enzyme and a single stranded BLM oligo substrate ([…]). […]
Records with an inconclusive call do not appear. Calls of active or inactive are those of the source. The call rests on the fitted dose curve; in most records, active means well fitted inhibition curve with a large enough effect; inconclusive means small, poorly fitted or top-dose-only effect; inactive means flat fitted curve, though single readings scatter.
Entry note: the call must match one of active, inactive

// known answers, use as guide
[ask] # lookup: test call for "CCOC(=O)c1cccc(NC(=O)Nc2nnc(-c3ccncc3)s2)c1"
[reply] inactive

[ask] What classification did "CN(C(=O)Nc1ccc2ccccc2c1)c1nnc(-c2ccncc2)s1" end up with in this test?
[reply] inactive

[ask] Each compound tested received a call. Report the one for "Cc1cc(NC(=O)Nc2cccc(-c3ccncc3)n2)ccc1F" .
[reply] inactive

[ask] Give the logged outcome of this assay for the following compound: "O=C(Nc1ccc2ccccc2c1)Nc1nnc(-c2ccc(Cl)cc2Cl)s1"
[reply] inactive

[ask] Which outcome was assigned to "O=C(Cc1ccc2ccccc2c1)Nc1nnc(-c2ccncc2)s1" in this test?
[reply] active

---
[ask] Each compound tested received a call. Report the one for "O=C(Nc1ccc(-c2nc3ccccc3[nH]2)cc1)Nc1ccc2occc2c1" .
[reply] inactive

[ask] I would be grateful if you could indicate the recorded call for "O=C(Nc1ccc(Cl)c(Cl)c1)Nc1nnc(NC2CCNCC2)s1" .
[reply] inactive

[ask] Lab log entry: "c1ccc2[nH]c(Nc3nnc(-c4ccncc4)s3)nc2c1" — outcome as called in the assay?
[reply] inactive

[ask] Lab log entry: "N#Cc1cc(NC(=O)Nc2nnc(-c3ccncc3)s2)ccc1F" — outcome as called in the assay?
[reply] active

---

biological target: RecQ-like DNA helicase BLM (Homo sapiens); assay: qHTS for Inhibitors of Bloom's syndrome helicase (BLM): Helicase ATPase Orthogonal Confirmatory Assay for SAR; details: purified BLM helicase ATPase activity assay; series mostly up to 57.1 µM
Records with an inconclusive call do not appear. The source made the active and inactive calls. The call rests on the fitted dose curve; in most records, active means well fitted inhibition curve with a large enough effect; inconclusive means small, poorly fitted or top-dose-only effect; inactive means flat fitted curve, though single readings scatter.
Result category, one only: active, inactive

Please review the entries below; each comes with its answer.
[ask] Dear colleague, could you share the recorded outcome for "O=C(Nc1ccc(Cl)c([N+](=O)[O-])c1)Nc1nnc(-c2ccc(F)cc2)s1" when you have a moment?
[reply] inactive

[ask] For this compound, state the assay outcome: "Cc1cc(NC(=O)Nc2nnc(-c3ccncc3)s2)ccc1C#N"
[reply] active

[ask] Can you look up the reported call for "O=C(Nc1ccc(Cl)c(Cl)c1)Nc1ncc(-c2ccncc2)s1" for me?
[reply] inactive

[ask] Name the outcome recorded for "O=C(Nc1ccc2ccccc2c1)Nc1nnc(-c2ccncc2)o1" in the assay.
[reply] inactive

[ask] Please state the recorded outcome for this compound: "Cc1cc(NC(=O)Nc2cccc(-c3ccncc3)n2)ccc1Br"
[reply] inactive

[ask] I would be grateful if you could indicate the recorded call for "Cc1cc(NC(=O)Nc2nnc(C3CCCCC3)s2)ccc1Cl" .
[reply] inactive

[ask] What did this assay record as the result for "Cc1cc(NC(=O)Nc2nnc(-c3cccnc3)s2)ccc1F" ?
[reply] inactive

[ask] For "O=C(Nc1ccc(Cl)c(Cl)c1)Nc1ccc(-c2ccncc2)s1" , which call appears in the assay record?
[reply] inactive

[ask] For "O=C(Nc1ccc(F)c(C(F)(F)F)c1)Nc1cccc(-c2ccncc2)n1" , which call appears in the assay record?
[reply] inactive

[ask] Which outcome did this test record for the compound "O=c1c(Nc2ccc(Cl)c(Cl)c2)c(Nc2nnc(-c3ccncc3)s2)c1=O" ?
[reply] active

***
[ask] How did this test come out for "Nc1cc(NC(=O)Nc2nnc(-c3ccncc3)s2)ccc1Cl" ?
[reply] active
